assay_name: Stability in mouse blood assessed as compound remaining measured after 1 hr
Assay type: ADME, tissue-based
condition_label: read-out: Stabilty
Listed here: items and their measured remaining at 1 h.

| compound_structure_string | remaining at 1 h [%] |
| --- | --- |
| CCOC(=O)[C@@H](Cc1ncccn1)NC(=O)Nc1c2c(cc3c1CCC3)CCC2 | 0 |
| CCOC(=O)[C@@H](Cc1cnccn1)NC(=O)Nc1c2c(cc3c1CCC3)CCC2 | 0 |

###

assay_name: Inhibition of IL-6 production in human PBMC
Listing of recorded IC50 by entry.

| compound_structure_string | bound_operator | IC50 / µM |
| --- | --- | --- |
| CC(C)(O)c1coc(S(=O)(=O)[N-]C(=O)Nc2c3c(cc4c2CCC4)CCC3)c1.[Na+] | > | 40 |
| CCOC(=O)[C@@H](Cc1ncccn1)NC(=O)Nc1c2c(cc3c1CCC3)CCC2 | = | 4.3 |

###

# Lookup of reported remaining at 1 h keyed by entry
assay_name: Stability in human blood assessed as compound remaining measured after 1 hr
Format: ADME, tissue-based
condition_label: read-out: Stabilty

| compound_structure_string | remaining at 1 h |
| --- | --- |
| CCOC(=O)[C@@H](Cc1ncccn1)NC(=O)Nc1c2c(cc3c1CCC3)CCC2 | 92.4% |
| CCOC(=O)[C@@H](Cc1cnccn1)NC(=O)Nc1c2c(cc3c1CCC3)CCC2 | 79.2% |
